Hey, just so you know, these numbers are from ChEMBL document CHEMBL3085708.

Test name: Drug metabolism in rabbit liver microsomes
Format: ADME, Oryctolagus cuniculus, Microsome
Measurement setup: read-out: Drug metabolism
Assay readout: metabolised

q: Answer with the recorded metabolised for the compound listed here: Cc1cc(N2CC[C@H](N3CCC[C@@H]3C)C2)ccc1NC(=O)c1c(C)noc1C
a: < 5%

====

Test name: Solubility of the compound in form of crystalline free base in water
Assay type: physicochemical
Assay readout: solubility (µg/mL)
Unit µg/mL implied. Number only.

q: Give solubility for the following compound: Cc1cc(N2CC[C@H](N3CCC[C@@H]3C)C2)ccc1NC(=O)c1c(C)noc1C
a: 110

====

Test name: Tmax in Sprague-Dawley rat brain at 10 mg/kg, po
Type: ADME, organism-based
Set-up: dose 10 mg/kg, route oral
Assay readout: Tmax (h)
Reply with just the number (in h).

q: Find the measured Tmax of Cc1cc(N2CC[C@H](N3CCC[C@@H]3C)C2)ccc1NC(=O)c1c(C)noc1C and report it.
a: 1

====

Test name: Drug metabolism in rabbit plasma at 100 ng/ml after 4 hrs
Assay type: ADME, cell-free, Oryctolagus cuniculus
Measurement setup: read-out: Drug metabolism
Assay readout: metabolised at 4 h, 100 ng/ml

q: Return metabolised at 4 h, 100 ng/ml for the following compound: Cc1cc(N2CC[C@H](N3CCC[C@@H]3C)C2)ccc1NC(=O)c1c(C)noc1C
a: < 5%

====

Assay target: Cytochrome P450 2C19 (Homo sapiens)
Sequence (P33261 whole entry): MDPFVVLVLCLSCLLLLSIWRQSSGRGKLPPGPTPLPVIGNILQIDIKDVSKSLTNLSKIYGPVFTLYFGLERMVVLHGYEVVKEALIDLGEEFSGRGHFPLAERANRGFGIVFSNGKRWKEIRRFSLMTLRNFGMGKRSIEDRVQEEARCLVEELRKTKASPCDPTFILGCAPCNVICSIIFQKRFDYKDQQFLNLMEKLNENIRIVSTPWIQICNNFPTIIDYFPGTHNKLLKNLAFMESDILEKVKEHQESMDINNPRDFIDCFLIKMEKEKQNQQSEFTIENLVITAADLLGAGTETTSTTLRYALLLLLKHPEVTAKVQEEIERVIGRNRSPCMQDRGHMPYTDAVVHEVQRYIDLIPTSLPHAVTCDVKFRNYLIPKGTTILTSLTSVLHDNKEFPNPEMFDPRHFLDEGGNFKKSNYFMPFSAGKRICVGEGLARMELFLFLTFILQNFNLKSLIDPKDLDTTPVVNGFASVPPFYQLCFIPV
Assay readout: IC50

q: Respond only with IC50 recorded for Cc1cc(N2CC[C@H](N3CCC[C@@H]3C)C2)ccc1NC(=O)c1c(C)noc1C
a: > 100 µM

====

Test name: AUC (0 to infinity) in Sprague-Dawley rat brain at 2 mg/kg, iv
Format: ADME, organism-based
Parameters: time infinity, dose 2 mg/kg, route intravenous
Assay readout: AUC(0-inf) (ng·h/mL)
Give a bare numeral; the unit ng·h/mL is implied.

q: Determine from records and report AUC(0-inf) for Cc1cc(N2CC[C@H](N3CCC[C@@H]3C)C2)ccc1NC(=O)c1c(C)noc1C
a: 1200

====

Test name: AUC (0 to infinity) in OF1 mouse plasma at 10 mg/kg, po
Format: ADME, organism-based
Design: time infinity, dose 10 mg/kg, route oral
Assay readout: AUC(0-inf) (µg·h/mL)
Write the value in µg·h/mL as a bare number.

q: Tell me measured AUC(0-inf) for Cc1cc(N2CC[C@H](N3CCC[C@@H]3C)C2)ccc1NC(=O)c1c(C)noc1C please.
a: 1.9

====

Test name: Elimination half life in OF1 mouse plasma at 10 mg/kg, po
Type: ADME, organism-based
Design: dose 10 mg/kg, route oral
Measurement setup: read-out: beta t1/2 (converted)
Assay readout: half-life (h)
Please respond with the number in h and leave the unit unwritten.

q: Give the value of half-life reported for the following: Cc1cc(N2CC[C@H](N3CCC[C@@H]3C)C2)ccc1NC(=O)c1c(C)noc1C
a: 1.8

====

Test name: AUC (0 to infinity) in OF1 mouse brain at 10 mg/kg, po
Format: ADME, organism-based
Parameters: time infinity, dose 10 mg/kg, route oral
Assay readout: AUC(0-inf) (ng·h/mL)
Record the value in ng·h/mL, omitting the unit from your answer.

q: Give recorded AUC(0-inf). Cc1cc(N2CC[C@H](N3CCC[C@@H]3C)C2)ccc1NC(=O)c1c(C)noc1C
a: 3100

====

Test name: Therapeutic index, ratio for toxicity in mouse to ratio for antidepression-like activity in rat
Measurement setup: in vivo, read-out: TI
Assay readout: selectivity ratio
Just the number, please, no unit after it.

q: Give the reported value of selectivity ratio for this record: Cc1cc(N2CC[C@H](N3CCC[C@@H]3C)C2)ccc1NC(=O)c1c(C)noc1C
a: 3

====

Assay target: Histamine H3 receptor (Homo sapiens, UniProt Q9Y5N1)
Sequence (Q9Y5N1 whole entry): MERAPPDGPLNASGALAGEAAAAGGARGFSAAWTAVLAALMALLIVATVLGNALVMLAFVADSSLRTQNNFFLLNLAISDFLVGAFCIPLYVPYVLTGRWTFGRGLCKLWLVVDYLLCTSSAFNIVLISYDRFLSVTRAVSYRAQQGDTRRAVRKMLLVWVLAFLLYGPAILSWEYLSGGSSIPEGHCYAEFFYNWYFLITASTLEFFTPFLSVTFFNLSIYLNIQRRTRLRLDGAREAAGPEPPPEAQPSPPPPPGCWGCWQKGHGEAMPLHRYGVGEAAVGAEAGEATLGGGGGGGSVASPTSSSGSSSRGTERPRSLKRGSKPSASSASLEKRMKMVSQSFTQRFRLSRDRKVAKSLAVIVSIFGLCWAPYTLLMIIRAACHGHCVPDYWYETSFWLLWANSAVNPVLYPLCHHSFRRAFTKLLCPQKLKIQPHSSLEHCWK
Test name: Inverse agonist activity at human histamine H3 receptor (445 amino acid residues) expressed in CHO cells by CRE-luciferase reporter gene assay
Assay readout: EC50 (nM)
Write the value in nM as a bare number.

q: Note down EC50 recorded for Cc1cc(N2CC[C@H](N3CCC[C@@H]3C)C2)ccc1NC(=O)c1c(C)noc1C
a: 0.7

====

Test name: Drug metabolism in macaque plasma at 100 ng/ml after 4 hrs
Assay type: ADME, cell-free
Measurement setup: macaca, read-out: Drug metabolism
Assay readout: metabolised at 4 h, 100 ng/ml

q: Specify metabolised at 4 h, 100 ng/ml for Cc1cc(N2CC[C@H](N3CCC[C@@H]3C)C2)ccc1NC(=O)c1c(C)noc1C and stop.
a: < 5%

====

Test name: Drug metabolism in human liver microsomes
Type: ADME
Measurement setup: read-out: Drug metabolism
Assay readout: metabolised

q: Look up metabolised of Cc1cc(N2CC[C@H](N3CCC[C@@H]3C)C2)ccc1NC(=O)c1c(C)noc1C and report it.
a: < 5%

====

Test name: Elimination half life in OF1 mouse plasma at 2 mg/kg, iv
Type: ADME, organism-based
Parameters: dose 2 mg/kg, route intravenous
Measurement setup: read-out: beta t1/2 (converted)
Assay readout: half-life (min)
Answer format: numeric, min implied, no suffix.

q: Supply recorded half-life for Cc1cc(N2CC[C@H](N3CCC[C@@H]3C)C2)ccc1NC(=O)c1c(C)noc1C here.
a: 39
